Exercise: for every item that follows, state its recorded percent inhibition of TTC39C mRNA.
Tested on: murine TTC39C mRNA
Experiment: Dose-dependent antisense inhibition of murine TTC39C in mouse primary hepatocytes
Type: cell-based
Conditions: 1000.0 nM, electroporation, ~16 h
Method: Thirty antisense oligonucleotides were selected from the study described in Example 8 and further tested at various doses in mouse primary hepatocytes. […] After a treatment period of approximately 16 hours, RNA was isolated from the cells and TTC39C mRNA levels were measured by quantitative real-time PCR. […] TTC39C mRNA levels were adjusted according to total RNA content, as measured by RIBOGREEN®. […]
Oligonucleotides are written 5' to 3', each unit as a sugar letter and its base; * is a phosphorothioate linkage, no mark a phosphodiester; rarer units and linkages stand in square brackets, end groups in braces. Plain capitals give the bases only. e = 2'-O-(2-methoxyethyl) (MOE); [5mC] = 5-methylcytosine; d = 2'-deoxy (DNA)
Numbers only; they are read as %.

Fill in: percent inhibition of TTC39C mRNA of ISIS 474523: 5-10-5 MOE gapmer antisense oligonucleotide targeting murine TTC39C (antisense eG*eG*eT*e[5mC]*eA*d[5mC]*d[5mC]*d[5mC]*d[5mC]*dT*dT*d[5mC]*dG*dG*d[5mC]*e[5mC]*eA*e[5mC]*eA*eA) is ___ 80

Fill in: percent inhibition of TTC39C mRNA of ISIS 474654: 5-10-5 MOE gapmer antisense oligonucleotide targeting murine TTC39C (antisense eT*e[5mC]*eA*eG*e[5mC]*dT*dA*d[5mC]*dA*dG*dA*dA*d[5mC]*dG*d[5mC]*eA*eG*eG*eG*eT) is ___ 14

Fill in: percent inhibition of TTC39C mRNA of ISIS 474629: 5-10-5 MOE gapmer antisense oligonucleotide targeting murine TTC39C (antisense eG*eA*eT*e[5mC]*eA*d[5mC]*dT*dG*d[5mC]*d[5mC]*dG*dT*d[5mC]*d[5mC]*dA*eA*eA*eG*e[5mC]*eA) is ___ 28

Fill in: percent inhibition of TTC39C mRNA of ISIS 474604: 5-10-5 MOE gapmer antisense oligonucleotide targeting murine TTC39C (antisense eT*eG*eT*e[5mC]*eA*d[5mC]*dT*dG*d[5mC]*d[5mC]*dG*dT*d[5mC]*d[5mC]*dA*eA*eA*eG*e[5mC]*eA) is ___ 70

Fill in: percent inhibition of TTC39C mRNA of ISIS 474600: 5-10-5 MOE gapmer antisense oligonucleotide targeting murine TTC39C (antisense e[5mC]*e[5mC]*eA*eA*eG*dG*dG*d[5mC]*dT*d[5mC]*dT*dT*d[5mC]*d[5mC]*dG*eT*e[5mC]*eA*eG*e[5mC]) is ___ 57

Fill in: percent inhibition of TTC39C mRNA of ISIS 474595: 5-10-5 MOE gapmer antisense oligonucleotide targeting murine TTC39C (antisense eG*eT*e[5mC]*eA*eT*d[5mC]*dG*d[5mC]*dA*d[5mC]*dG*d[5mC]*d[5mC]*dA*dA*e[5mC]*eT*eG*e[5mC]*eA) is ___ 87

Fill in: percent inhibition of TTC39C mRNA of ISIS 474543: 5-10-5 MOE gapmer antisense oligonucleotide targeting murine TTC39C (antisense e[5mC]*e[5mC]*eA*eG*eG*dT*dG*dG*d[5mC]*dT*dT*dT*dG*dG*d[5mC]*eT*eT*eG*eG*eG) is ___ 88

Fill in: percent inhibition of TTC39C mRNA of ISIS 474666: 5-10-5 MOE gapmer antisense oligonucleotide targeting murine TTC39C (antisense e[5mC]*eA*eA*eT*e[5mC]*dA*dT*dG*d[5mC]*dT*dG*d[5mC]*dA*d[5mC]*d[5mC]*eA*eG*e[5mC]*e[5mC]*eT) is ___ 54

Fill in: percent inhibition of TTC39C mRNA of ISIS 474535: 5-10-5 MOE gapmer antisense oligonucleotide targeting murine TTC39C (antisense eT*e[5mC]*e[5mC]*eA*e[5mC]*dT*dT*d[5mC]*dA*dT*dG*dG*d[5mC]*dA*dA*eG*e[5mC]*eT*eT*eG) is ___ 35

Fill in: percent inhibition of TTC39C mRNA of ISIS 474615: 5-10-5 MOE gapmer antisense oligonucleotide targeting murine TTC39C (antisense eG*eT*eA*e[5mC]*eG*dA*dG*dT*dT*dA*d[5mC]*dT*d[5mC]*dT*dG*e[5mC]*e[5mC]*eG*eA*e[5mC]) is ___ 43
